assay: Binding affinity to chymotrypsin (unknown origin) assessed as deacetylation; conditions: Homo sapiens
Recorded Endpoint: log K
A bare number is all that is needed in reply.

Dear colleague, I am looking for the recorded log K of the following molecule: O=CNCC(=O)Oc1ccc([N+](=O)[O-])cc1 -0.61

Dear colleague, I am looking for the recorded log K of the following molecule: O=C(CCCc1c[nH]c2ccccc12)Oc1ccc([N+](=O)[O-])cc1 -0.83

Dear colleague, I am looking for the recorded log K of the following molecule: CC(=O)NCC(=O)Oc1ccc([N+](=O)[O-])cc1 -0.12

Dear colleague, I am looking for the recorded log K of the following molecule: CCCC[C@H](NC(C)=O)C(=O)OC 1.28

Dear colleague, I am looking for the recorded log K of the following molecule: CC(C)[C@@H](NC(=O)OCc1ccccc1)C(=O)Oc1ccc([N+](=O)[O-])cc1 -2.1

Dear colleague, I am looking for the recorded log K of the following molecule: O=C(CCCc1ccccc1)Oc1ccc([N+](=O)[O-])cc1 -0.87

Dear colleague, I am looking for the recorded log K of the following molecule: CC(=O)N[C@H](C(=O)OC(C)C)C(C)C -0.68

Dear colleague, I am looking for the recorded log K of the following molecule: O=C(CCCCc1ccccc1)Oc1ccc([N+](=O)[O-])cc1 -1.68

Dear colleague, I am looking for the recorded log K of the following molecule: O=C(N[C@H](Cc1ccccc1)C(=O)Oc1ccc([N+](=O)[O-])cc1)OCc1ccccc1 -0.74

Dear colleague, I am looking for the recorded log K of the following molecule: O=C(CCCCl)Oc1ccc([N+](=O)[O-])cc1 -1.27

Dear colleague, I am looking for the recorded log K of the following molecule: CCCCCCCC(=O)Oc1ccc([N+](=O)[O-])cc1 -1.47

Dear colleague, I am looking for the recorded log K of the following molecule: C[C@H](NC=O)C(=O)Oc1ccc([N+](=O)[O-])cc1 -0.61

* * *

assay: Binding affinity to chymotrypsin (unknown origin) assessed as hydrolysis; settings: Homo sapiens
Recorded Endpoint: logKcat
A bare number is all that is needed in reply.

Dear colleague, I am looking for the recorded logKcat of the following compound: CCOC(=O)[C@@H](NC(C)=O)c1ccccc1 -0.05

Dear colleague, I am looking for the recorded logKcat of the following compound: CC[C@H](C)OC(=O)[C@H](Cc1ccccc1)NC(C)=O 1.55

Dear colleague, I am looking for the recorded logKcat of the following compound: COC(=O)[C@H](Cc1ccc(O)cc1)NC(=O)c1ccccc1 1.96

* * *

Assignment: determine reported log(1/Km) for the given compounds.
assay: Binding affinity to chymotrypsin (unknown origin); conditions: Homo sapiens

Dear colleague, I am looking for the recorded log(1/Km) of the following compound: CCOC(=O)[C@H](C)NC(=O)c1ccccc1 2.22

Dear colleague, I am looking for the recorded log(1/Km) of the following compound: C[C@H](OC(=O)CNC(=O)c1ccccc1)c1ccccc1 3.77

Dear colleague, I am looking for the recorded log(1/Km) of the following compound: CC(=O)c1ccc(OC(=O)CNC(=O)c2ccccc2)cc1 4.51

Dear colleague, I am looking for the recorded log(1/Km) of the following compound: COc1ccc(OC(=O)CNC(=O)c2ccccc2)cc1 3.99

Dear colleague, I am looking for the recorded log(1/Km) of the following compound: CCC[C@@H](NC(=O)OCc1ccccc1)C(=O)Oc1ccc([N+](=O)[O-])cc1 5.5

Dear colleague, I am looking for the recorded log(1/Km) of the following compound: CCC[C@H](NC(C)=O)C(=O)OC(C)C 1.51

Dear colleague, I am looking for the recorded log(1/Km) of the following compound: CS(=O)(=O)N[C@@H](Cc1ccccc1)C(=O)Oc1ccccc1 4.57

Dear colleague, I am looking for the recorded log(1/Km) of the following compound: O=C(CNC(=O)c1ccccc1)Oc1ccc(Cl)cc1 3.94

Dear colleague, I am looking for the recorded log(1/Km) of the following compound: CC(C)[C@@H](NC(=O)OCc1ccccc1)C(=O)Oc1ccc([N+](=O)[O-])cc1 5.13

Dear colleague, I am looking for the recorded log(1/Km) of the following compound: C[C@H](NC(=O)OCc1ccccc1)C(=O)Oc1ccc([N+](=O)[O-])cc1 4.7

Dear colleague, I am looking for the recorded log(1/Km) of the following compound: CC(=O)N[C@@H](Cc1ccccc1)C(=O)O[C@H](C)C1CCCCC1 3.31

Dear colleague, I am looking for the recorded log(1/Km) of the following compound: O=C(CNC(=O)c1ccccc1)Oc1ccccc1 3.87

Dear colleague, I am looking for the recorded log(1/Km) of the following compound: CC[C@@H](C)OC(=O)CNC(=O)c1ccccc1 2.7

Dear colleague, I am looking for the recorded log(1/Km) of the following compound: COC(=O)[C@H](C)NC(=O)c1ccccc1N 2.33

Dear colleague, I am looking for the recorded log(1/Km) of the following compound: CC[C@H](C)OC(=O)CNC(=O)c1ccccc1 2.95

Dear colleague, I am looking for the recorded log(1/Km) of the following compound: CCCCOC(=O)CNC(=O)c1ccccc1 2.95

Dear colleague, I am looking for the recorded log(1/Km) of the following compound: O=CNCC(=O)Oc1ccc([N+](=O)[O-])cc1 4.8

Dear colleague, I am looking for the recorded log(1/Km) of the following compound: COC(=O)[C@@H](C)NC(=O)c1ccccn1 1.77

Dear colleague, I am looking for the recorded log(1/Km) of the following compound: CC[C@H](NC(C)=O)C(=O)OC 1.28

Dear colleague, I am looking for the recorded log(1/Km) of the following compound: COC(=O)[C@H](C)NC(=O)c1cccnc1 1.43
